System: HCT-15 colon
Experiment: NCI-60 one-dose screen, 48 h (100 = growth as untreated, 0 = no growth, -100 = all killed)
Details: 10 µM unless noted
Procedure: Growth inhibition of the HCT-15 human tumor cell line is measured as a screen for anti-cancer activity. Cells are grown in 96 well plates and exposed to the test compound for 48 hours. Compounds are tested at a single concentration, which is 10^-5 M for most compounds. The reported endpoint is percent growth (GI% or GIPRCNT), where numbers from 0 - 100% represent growth inhibition, and numbers from -100% - 0 represent cell death. For example, a value of 40 represents 60% growth inhibition. […]
Compounds without any hit were thinned out: in the full panel of roughly 83,000, 20% have a hit.
quantity_measured: growth (%)
Express your answer in %, writing the number without its unit.

Task item: Give a short answer stating reported growth for "CCOC(=O)c1cc(C)[nH]c(=O)c1C#N" .
Reply: 101

Task item: Give a short answer stating reported growth for "CC(C)C(C)(C)C(=O)C(C)(C)C(C)(C)C" .
Reply: 96.9

Task item: Give a short answer stating reported growth for "CCNC(=O)OCCc1c2ccccc2nc2ccccc12" .
Reply: 104

Task item: Give a short answer stating reported growth for "CCOc1ccncc1[N+](=O)[O-]" .
Reply: 110

Task item: Give a short answer stating reported growth for "CC(=O)c1cccs1" .
Reply: 99.5

Task item: Give a short answer stating reported growth for "N#Cc1ccc2nc[nH]c2c1" .
Reply: 106

Task item: Give a short answer stating reported growth for "CC(C)N(CCCC#N)C(C)C" .
Reply: 96.7

Task item: Give a short answer stating reported growth for "Cc1ccc(C)c(CCO)c1" .
Reply: 112

----------
Provide the recorded growth for the entries that follow.
system: UACC-257 melanoma; assay: NCI-60 one-dose screen, 48 h (100 = growth as untreated, 0 = no growth, -100 = all killed); details: 10 µM unless noted
Compounds without any hit were thinned out: in the full panel of roughly 83,000, 20% have a hit.
Express your answer in %, writing the number without its unit.

Task item: Give a short answer stating reported growth for COC(=O)C1(CC(C)=O)NC(=S)NC(=O)C1C#N (centres undefined) .
Reply: 118

Task item: Give a short answer stating reported growth for "O=C(O)c1c[nH]c2ccccc2c1=O" .
Reply: 112

Task item: Give a short answer stating reported growth for "CCOC(=O)c1c(C)[nH]c(C)c1C=O" .
Reply: 69.4

Task item: Give a short answer stating reported growth for "CC(=O)N(C(C)=O)c1ccc(C)cc1" .
Reply: 110

Task item: Give a short answer stating reported growth for "C1Cc2onc(-c3noc4c3CCC4)c2C1" .
Reply: 110

Task item: Give a short answer stating reported growth for "CCCCCCCCCc1ccc(OC(C)=O)cc1" .
Reply: 110

Task item: Give a short answer stating reported growth for "Cc1cc2c3ccc(C)[n+](C)c3ccc2n1C" .
Reply: 32.2

Task item: Give a short answer stating reported growth for "CCOC(C=O)OCC" .
Reply: 96.6

Task item: Give a short answer stating reported growth for "O=C(Nc1cccc(Cl)c1)c1ccc(Cl)cc1Cl" .
Reply: 99.7

Task item: Give a short answer stating reported growth for "CCCCCCCCCCC(=O)CCCCCCCCCC" .
Reply: 101

Task item: Give a short answer stating reported growth for "Cc1ccc(S(=O)(=O)NC(=O)NCCSSCCNC(=O)NS(=O)(=O)c2ccc(C)cc2)cc1" .
Reply: 89.1

Task item: Give a short answer stating reported growth for "Cc1ccc(/C=N/NC(N)=S)s1" .
Reply: 109

Task item: Give a short answer stating reported growth for "O=C(O)Cc1cccc2ccccc12" .
Reply: 90.4

Task item: Give a short answer stating reported growth for C=CC(C)C(C)(C)O (centres undefined) .
Reply: 109
